System: SK-OV-3
TEST DESCRIPTION: Cytotoxicity against human SKOV3 cells by MTT assay
Type: functional, cell-based
# IC50 values compiled below
Numeric answer only, unit µM assumed.

Past entries and their recorded results:
{"MOLECULE": "COC(=O)[C@@]12OC[C@]34[C@H]([C@@H](O)[C@@H]1O)[C@@]1(C)CC(=O)C(O)=C(C)[C@@H]1C[C@H]3OC(=O)[C@H](OC(C)=O)[C@@H]24", "IC50 / µM": 0.12}
{"MOLECULE": "COC(=O)[C@@]12OC[C@]34[C@H]([C@@H](O)[C@@H]1O)[C@@]1(C)C[C@H](O)C(=O)[C@@H](C)[C@@H]1C[C@H]3OC(=O)[C@H](OC(=O)C=C(C)C)[C@@H]24 [JAVANICOLIDE H]", "IC50 / µM": 0.23}
{"MOLECULE": "COC(=O)[C@@]12OC[C@@]34[C@@H](CC5=C(C)C(=O)C(O)=C[C@]5(C)[C@H]3[C@@H](O)[C@@H]1O)OC(=O)[C@H](OC(=O)C=C(C)C)[C@@H]24 [DEHYDROBRUSATOL]", "IC50 / µM": 2.5}

Measured IC50 for this entry CC1=CC(=O)[C@@H](O)[C@]2(C)[C@H]3[C@@H](O)[C@H](O)[C@@]4(CO)OC[C@@]35[C@@H](C[C@@H]12)OC(=O)[C@H](O)[C@]54O on SK-OV-3: 0.33

# value of IC50, SK-OV-3, item COC(=O)[C@@]12OC[C@]34[C@H]([C@@H](O)[C@@H]1O)[C@@]1(C)CC(=O)[C@H](O)[C@@H](C)[C@@H]1C[C@H]3OC(=O)[C@H](OC(=O)C=C(C)C)[C@@H]24 [JAVANICOLIDE E] = 1.49

---

Tested on: A549
TEST DESCRIPTION: Cytotoxicity against human A549 cells by MTT assay
Type: functional, cell-based
pIC50: −log10 of the molar value.
TEST READOUT: pIC50

// solved cases for pIC50 follow
{"COMPOUND": "CC1=C[C@H](O)[C@@H](O)[C@]2(C)[C@H]3[C@@H](O)[C@H](O)[C@@]4(C)OC[C@@]35[C@@H](C[C@@H]12)OC(=O)[C@H](O)[C@]54O", "TEST READOUT": "pIC50", "VALUE REPORTED": "< 5.00"}
{"COMPOUND": "CC1=CC(=O)[C@@H](O)[C@]2(C)[C@H]3[C@@H](O)[C@H](O)[C@@]4(CO)OC[C@@]35[C@@H](C[C@@H]12)OC(=O)[C@H](O)[C@]54O", "TEST READOUT": "pIC50", "VALUE REPORTED": 5.03}
{"COMPOUND": "COC(=O)[C@@]12OC[C@]34[C@H]([C@@H](O)[C@@H]1O)[C@@](C)(CC(=O)O)[C@H]([C@@H](C)C(=O)O)C[C@H]3OC(=O)[C@H](OC(=O)C=C(C)C)[C@@H]24", "TEST READOUT": "pIC50", "VALUE REPORTED": "< 5.00"}
{"COMPOUND": "CC1=CC(=O)[C@@H](O)[C@]2(C)[C@H]3[C@@H](O)[C@H](O)[C@]4(C)OC[C@@]35[C@@H](C[C@@H]12)OC(=O)[C@H](O)[C@]54O", "TEST READOUT": "pIC50", "VALUE REPORTED": 5.41}

Now consider a different compound.
According to the records, this compound COC(=O)[C@@]12OC[C@]34[C@H]([C@@H](O)[C@@H]1O)[C@@]1(C)C=C(O[C@@H]5O[C@H](CO)[C@@H](O)[C@H](O)[C@H]5O)C(=O)[C@@H](C)[C@@H]1C[C@H]3OC(=O)[C@H](OC(=O)C=C(C)C)[C@@H]24 [BRUCEOSIDE A] displays pIC50 of < 5.00

---

System: SK-OV-3
TEST DESCRIPTION: Cytotoxicity against human SKOV3 cells by MTT assay
Type: functional, cell-based
TEST READOUT: pIC50
The read-out pIC50 is expressed as -log10 of concentration in moles per litre.

{"STRUCTURE STRING": "CC1=C[C@H](O)[C@@H](O)[C@]2(C)[C@H]3[C@@H](O)[C@H](O)[C@@]4(C)OC[C@@]35[C@@H](C[C@@H]12)OC(=O)[C@H](O)[C@]54O", "VALUE REPORTED": 5.66}

Item: CC1=CC(=O)[C@@H](O)[C@]2(C)[C@H]3[C@@H](O)[C@H](O)[C@]4(C)OC[C@@]35[C@@H](C[C@@H]12)OC(=O)[C@H](O)[C@]54O | pIC50: 6.12

---

Tested on: BGC-823
TEST DESCRIPTION: Cytotoxicity against human BGC823 cells by MTT assay
Assay type: functional, cell-based
The following compounds are listed with their measured pIC50 values.
Scale explanation: pIC50 corresponds to minus log10 of a concentration expressed in moles per litre.

{"COMPOUND": "CC1=CC(=O)[C@@H](O)[C@]2(C)[C@H]3[C@@H](O)[C@H](O)[C@]4(C)OC[C@@]35[C@@H](C[C@@H]12)OC(=O)[C@H](O)[C@]54O", "pIC50": 5.92}

Could you now look at the following compound, please?
Hey, BGC-823 data for COC(=O)[C@@]12OC[C@]34[C@H]([C@@H](O)[C@@H]1O)[C@@]1(C)CC(=O)[C@H](O)[C@@H](C)[C@@H]1C[C@H]3OC(=O)[C@H](OC(=O)C=C(C)C)[C@@H]24 [JAVANICOLIDE E] : pIC50 came out at 5.84

---

System: BGC-823
TEST DESCRIPTION: Cytotoxicity against human BGC823 cells by MTT assay
Assay type: functional, cell-based
pIC50: −log10 of the molar value.
TEST READOUT: pIC50

{"COMPOUND": "COC(=O)[C@@]12OC[C@]34[C@H]([C@@H](O)[C@@H]1O)[C@@](C)(CC(=O)O)[C@H](C(C)=O)C[C@H]3OC(=O)[C@H](OC(=O)C=C(C)C)[C@@H]24", "TARGET DESC": "BGC-823", "TEST READOUT": "pIC50", "VALUE REPORTED": "< 5.00"}
{"COMPOUND": "COC(=O)[C@@H](C)[C@@H]1C[C@H]2OC(=O)[C@H](OC(=O)C=C(C)C)[C@H]3[C@]4(C(=O)OC)OC[C@]23[C@H]([C@@H](O)[C@@H]4O)[C@@]1(C)CC(=O)O", "TARGET DESC": "BGC-823", "TEST READOUT": "pIC50", "VALUE REPORTED": "< 5.00"}

pIC50 for COC(=O)[C@]12OC[C@@]34[C@H](C[C@H]5[C@H](C)C(=O)C(O[C@@H]6O[C@H](CO)[C@@H](O)[C@H](O)[C@H]6O)=C[C@]5(C)[C@H]3[C@@H](O)[C@@H]1O)OC(=O)[C@H](OC(=O)/C=C(\C)C(C)C)[C@@H]24 [BRUCEANTINOSIDE A] is < 5.00

---

Parameter: pIC50. Scope: all listed entries.
System: A549
TEST DESCRIPTION: Cytotoxicity against human A549 cells by MTT assay
Assay type: functional, cell-based
pIC50: −log10 of the molar value.

Known pIC50 results, listed for orientation:
{"COMPOUND": "COC(=O)[C@]12OC[C@@]34[C@H](C[C@H]5[C@H](C)C(=O)C(O[C@@H]6O[C@H](CO)[C@@H](O)[C@H](O)[C@H]6O)=C[C@]5(C)[C@H]3[C@@H](O)[C@@H]1O)OC(=O)[C@H](OC(=O)/C=C(\\C)C(C)C)[C@@H]24 [BRUCEANTINOSIDE A]", "TEST READOUT": "pIC50", "VALUE REPORTED": "< 5.00"}
{"COMPOUND": "COC(=O)C[C@]1(C)[C@H]2[C@@H](O)[C@H](O)[C@@]3(C(=O)OC)OC[C@@]24[C@@H](C[C@H]1C(C)=O)OC(=O)[C@H](OC(=O)C=C(C)C)[C@@H]34", "TEST READOUT": "pIC50", "VALUE REPORTED": "< 5.00"}
{"COMPOUND": "COC(=O)[C@@H](C)[C@@H]1C[C@H]2OC(=O)[C@H](OC(=O)C=C(C)C)[C@H]3[C@]4(C(=O)OC)OC[C@]23[C@H]([C@@H](O)[C@@H]4O)[C@@]1(C)CC(=O)O", "TEST READOUT": "pIC50", "VALUE REPORTED": "< 5.00"}

From here, focus on the item given below.
For this compound ( COC(=O)[C@@]12OC[C@]34[C@H]([C@@H](O)[C@@H]1O)[C@@]1(C)CC(=O)C(O)=C(C)[C@@H]1C[C@H]3OC(=O)[C@H](OC(C)=O)[C@@H]24 ), measured pIC50 is 5.89
